System: MDA-MB-231 breast
experimental details: NCI-60 one-dose screen, 48 h (100 = growth as untreated, 0 = no growth, -100 = all killed)
setup conditions: 10 µM unless noted
Compounds without any hit were thinned out: in the full panel of roughly 83,000, 20% have a hit.
Values of growth strictly less than 20% map to condition met, and values of at least 20% map to condition not met.

hey, is growth for COc1ccc(C(SCCNCc2cc(N(C)C)ccn2)(c2ccccc2)c2ccccc2)cc1 lower than 20% or not?
condition met

hey, is growth for Cc1ccc(-c2nc(Nc3ccccc3S(N)(=O)=O)c3ccccc3n2)cc1 lower than 20% or not?
condition not met

hey, is growth for Cc1ccccc1[C@H]1C(C(=O)c2ccc(Cl)cc2)C2(N[C@@H]1c1ccccc1)C(=O)Nc1ccccc12 (stereo partly specified) lower than 20% or not?
condition met

hey, is growth for COc1ccc(C2=NN(C(C)=O)C(c3ccc(OCc4ccc(Cl)cc4)c(OC)c3)C2)cc1OC (stereo unspecified) lower than 20% or not?
condition not met

hey, is growth for CCCCCCCCc1ccc(S(=O)(=O)Nc2ccc(CC)cc2C(=O)O)cc1 lower than 20% or not?
condition not met

hey, is growth for COc1cc(-c2nc3cc(Cl)c(Cl)cc3[nH]2)ccc1OCc1nnc(-c2cccs2)o1 lower than 20% or not?
condition met
